Values were extracted from patent US20190248902A1.

Recorded % Inhibition for the following binders
Target: T1, human ASGR-1 (human, UniProt P07306 1-291)
T1 construct: Stably expressed on CHO-S cells (CHO-S:huASGR-1); The method text says human or mouse ASGR-1 cells were used; also called huASGR-1; hASGR-1
T1 sequence: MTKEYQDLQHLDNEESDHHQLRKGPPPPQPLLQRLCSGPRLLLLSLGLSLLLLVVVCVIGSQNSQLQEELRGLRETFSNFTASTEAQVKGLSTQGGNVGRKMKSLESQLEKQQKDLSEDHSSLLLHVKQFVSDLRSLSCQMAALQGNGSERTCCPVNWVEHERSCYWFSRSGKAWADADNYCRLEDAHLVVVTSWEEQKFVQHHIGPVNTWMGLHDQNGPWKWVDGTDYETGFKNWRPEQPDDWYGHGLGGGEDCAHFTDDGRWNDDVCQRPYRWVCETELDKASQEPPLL
Assay: FACS ligand blocking on CHO-S ASGR-1 cells; labelled ligand biotin-GalNAc-PAA (synthetic sugar)
Numbers only; they are read as %.

// known answers, use as guide
4A2 (antibody, V domains shown) VH: QVQLVQSGTEVKKPGASVKVSCKASGYTFTNYDINWVRQATGQGLEWMGWMHPNSGNTGYAQKFQGRVTLTRNTSISTAYMELSSLRSEDTAVYYCASSSGWYYFDYWGQGTLVTVSS VL: DIVMTQSPDSLAVSLGERATINCKSSQSILHSSNNNNYLAWFQQKPGQPPKLLLYWASTRESGVPDRFSGSGSGTDFTLTISSLQPEDVAVYYCQQYYNTPVTFGPGTKVGIK: 70
22G5 (antibody, V domains shown) VH: EVQLLESGGGLVQPGGSLRLSCAASGFTFSSYAMNWVRQAPGMGLEWVSVISRSGGYTYYADSVKGRFTISRDNSKNTLYLQMNSLRAEDTAVYYCASRLAVAGSEAFDIWGQGTLVTVSS VL: DIQMTQSPSSLSASVGDRVTITCRASQNISSYLNWYQQKQGKAPKLLIYAASSLQNGVPSRFSGRGSGTDFTLTISSLQPEDFATYYCQQSYRTPLFTFGPGTKVDFK: 93

Next, consider the following binder.
Return reported % Inhibition. Input binder: 6G7 (antibody, V domains shown) VH: QVQLVESGGGVVQPGRSLRLSCAASGFTFSSYGMHWVRQTPGKGLEWVAIISYVGKNKYYADSVKGRFTISRDNSKNTLYLQMNSLRAEDTAVYYCARRGNSYGGYGMDVWGQGTTVTVSS VL: DIQMTQSPSSRSASVGDRVTITCQASQDISNYLNWCQQKPGKALKLLIYDASTLETGVPSRFSGSGSGTDFTFTISSVQPEDIATYYCQQYDNVPITFGQGTRLEIK
0
